- ASSAY PROCEDURE: qHTS assay for small molecule activators of the heat shock response signaling pathway (AID 743210);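 also: HeLa cells with beta-lactamase reporter driven by heat shock elements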
- CONDITION SUMMARY: HeLa HSE-bla reporter, beta-lactamase ratio, 5 h; series mostly up to 62.6 µM
- Text: U.S. Tox21 Program National Center for Advancing Translational Sciences [NCATS] NIH Chemical Genomics Center [NCGC] U.S. Environmental Protection Agency [EPA] National Institutes of Environmental Health Sciences [NIEHS] National Toxicology Program [NTP] U.S. Food and Drug Administration [FDA] Tox21 Assay Overview: Various chemicals, environmental and physiological stress conditions may lead to the activation of heat shock response/ unfolded protein response (HSR/UPR). […]
Inconclusive results are not listed. Activity calls are given as the source filed them. Calls follow the shape of the dose curve; as a rule, active = well fitted activation curve with a large enough effect in the signal ratio in the repeat runs, with a control signal flat (not every such curve was filed as active); inconclusive = weak or mixed curves; inactive = flat fitted curve, though single readings scatter; the % refers to the signal ratio.
READOUT KIND: outcome

Worked set:
| MOLECULE | READOUT VALUE |
| --- | --- |
| COc1ccc2c(c1OC)CN1CCc3cc4c(cc3C1C2)OCO4 (stereo not given) | inactive |
| N#CC(Cl)(Cl)Cl | inactive |
| COC(=O)c1ccccc1S(=O)(=O)NC(=O)N(C)c1nc(C)nc(OC)n1 | inactive |
| CC(C(=O)c1ccccc1)N(C)C (stereo not given) | inactive |
| CC1(C)COP(Oc2ccccc2)OC1 | inactive |
| NC(=O)c1cc([N+](=O)[O-])cc([N+](=O)[O-])c1 | inactive |

Lookup: Sample `Cc1ncc(CNC(=O)N(CCCl)N=O)c(N)n1` — what was its outcome?
Found: inactive

Lookup: What value of outcome has been reported for the following molecule? CC(CCc1ccccc1)NC(C)C(O)c1ccc(O)cc1 (stereo not given)
Found: inactive

Lookup: Bench note: what outcome did `CCOP(=S)(OCC)Oc1cc(-c2ccccc2)on1` show?
Found: inactive
